Target: T1, human IL-12RB2 overexpressed on 293T cells (Example 2) (human, UniProt Q99665 24-862)
T1 construct: whole, on cells
T1 sequence (looked up): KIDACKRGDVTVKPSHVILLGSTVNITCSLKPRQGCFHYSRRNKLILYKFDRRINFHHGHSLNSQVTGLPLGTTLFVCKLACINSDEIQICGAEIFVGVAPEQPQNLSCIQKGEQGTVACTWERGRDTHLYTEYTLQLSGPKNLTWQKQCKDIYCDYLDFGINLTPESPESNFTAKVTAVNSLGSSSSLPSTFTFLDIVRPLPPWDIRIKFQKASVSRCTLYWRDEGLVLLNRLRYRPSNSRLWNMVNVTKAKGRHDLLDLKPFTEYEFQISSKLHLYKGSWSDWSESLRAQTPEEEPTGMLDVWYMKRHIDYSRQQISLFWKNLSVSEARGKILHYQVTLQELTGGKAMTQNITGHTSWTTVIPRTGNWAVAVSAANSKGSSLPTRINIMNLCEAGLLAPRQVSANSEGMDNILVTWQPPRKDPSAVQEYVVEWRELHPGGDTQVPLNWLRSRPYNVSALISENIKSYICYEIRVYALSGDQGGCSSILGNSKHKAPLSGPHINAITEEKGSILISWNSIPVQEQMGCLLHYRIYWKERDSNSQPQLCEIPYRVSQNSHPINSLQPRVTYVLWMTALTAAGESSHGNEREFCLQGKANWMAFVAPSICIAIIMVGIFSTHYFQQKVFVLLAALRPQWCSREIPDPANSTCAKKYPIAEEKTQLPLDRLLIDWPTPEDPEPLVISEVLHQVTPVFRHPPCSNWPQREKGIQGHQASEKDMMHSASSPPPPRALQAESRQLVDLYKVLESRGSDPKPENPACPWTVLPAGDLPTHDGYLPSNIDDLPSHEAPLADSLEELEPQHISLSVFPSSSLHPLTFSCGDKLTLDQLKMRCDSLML
Assay: FACS, hybridoma supernatant, 293T

# binder, u, Fold over parental 293T
rows = [
    ("85802_06F06 (antibody, V domains shown, also called 85802_06F06A) VH: QVQLQESGPGLVKPSETLSLTCTVSGGSISSYYWSWIRQPPGKGLEWFGYIYDSGSTNYNPSLKSRVTISVDTSKNQFSLKLSSVTAADTAVYYCARGSYFWYFDLWGRGTLVTVSS VL: SYELTQPPSVSVSPGQTASITCSGDKLGAKYASWYHQKPGQSPVLVIYQDTKRPSGIPERFSGSNSGNTATLTISGTQAMDEADYYCQAWDSSTVVFGGGTKLTVL", "fold", 3.3),
    ("85802_10M17 (antibody, V domains shown, also called 85802_10M17A) VH: EVLLVESGGGLVKPGGSLRLSCAASGFTFSSYSMNWVRQAPGKGLEWVSSISSSSDYIHYADSVRGRFTISRDNAKNSLYLQMNSLRAEDTAVYYCARSELGFDYWGQGTLVTVSS VL: DIQMTQSPSSVSASVGDRVTITCRASQGISIWLAWYQQKPGKAPKPLIYAASSLQSGVPSRFSGSGSGTDFTLTISSLQPEDFATYYCQQANSFPLTFGGGTKVEIK", "fold", 3.8),
    ("85802_06H06 (antibody, V domains shown, also called 85802_06H06A) VH: QVHLQESGPGLVKPSETLSLTCTVSGGSISYYYWNWIRQPPGKGLEWIASIYNSGNINYNPSLKSRVTISVDTSKNQFSLKLTSVTAADTAVYYCARGGYSYGYFDNWGQGILVTVSS VL: SYELTQPPSVSVSPGQTASITCSGRELGNKYAYWYQQKPGQSPVLVIYEDYKRPSGIPERFSGSNSGNTATLTISGTQAMDEADYYCQAWDSSTVIFGGGTKLTVL", "fold", 2.9),
    ("85802_10K12 (antibody, V domains shown, also called 85802_10K12A) VH: QVTLRESGPALVKPTQTLTLTCTFSGFSLSTSGMCVSWIRQPPGKALEWLALIYWDDDKYYSTSLKTRLTISKDTSKNQVVLTMTNMDPVDTATYYCARMRRGIEAFDIWGQGTMVTVFS VL: QSVLTQPPSVSGAPGQRVTISCTGSSSNIGAGYDVHWYQQLPGTAPKLLIFGYSNRPSGVPVRFSGSKSGTSASLAITGLLAEDEADFYCQSFDISLTGWVFGGGTKLTVL", "fold", 3.3),
]

Origin of the recorded values: patent US20250019450A1
